test system: 379773-124-R-J2-PDC complex spheroids, viability % test/control; assay: Anticancer human tumor 379773-124-R-J2-PDC patient-derived endometrial carcinoma cell line growth inhibition [CLK]; settings: second compound 10 µM; first compound 1 µM; hits give low values;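 also: compound exposure lasted seven days before the viability readout; 100% = DMSO vehicle control wells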
Give viability, T/C for every item shown.
Please respond with the number in % and leave the unit unwritten.

Query COc1ccc([C@@H](O)c2cc(-c3ncnc4cc(N5CCOCC5)ccc34)c(F)cc2Cl)nn1 + CNC(=O)c1ccc(Nc2nc(OC3CCCC3)c3c(-c4ccc5nc(C)oc5c4)c[nH]c3n2)c(OC)c1 yields viability, T/C of 17.9

Documented viability, T/C of C=C(F)C(=O)N1CCN(c2nc(OCC3CCCN3C)nc3c2CCN(c2cccc4cccc(Cl)c24)C3)CC1CC#N (stereo not drawn) + CN1CCN(c2cc(C(=O)Nc3cc4cc(-c5cnn(C)c5)ccc4cn3)ccn2)CC1 : 0.22

Per the record, C#Cc1c(F)ccc2cc(O)cc(-c3ncc4c(N5CC6CCC(C5)N6)nc(OCC56CCCN5CC(F)C6)nc4c3F)c12 (stereo not drawn) + CN1CCN(c2cc(C(=O)Nc3cc4cc(-c5cnn(C)c5)ccc4cn3)ccn2)CC1 has viability, T/C of 3.73

# compound COc1c(OCCCN2CCOCC2)ccc2c3n(c(=NC(=O)c4cnc(N)nc4)nc12)CCN3 + CN1CCN(c2cc(C(=O)Nc3cc4cc(-c5cnn(C)c5)ccc4cn3)ccn2)CC1 ; its viability, T/C = 0.15

Looking up Nc1ccccc1NC(=O)c1ccc(CNC(=O)OCc2cccnc2)cc1 + CNC(=O)c1ccc(Nc2nc(OC3CCCC3)c3c(-c4ccc5nc(C)oc5c4)c[nH]c3n2)c(OC)c1 , I see its viability, T/C listed as 17.3

Per the record, O=c1[nH]cc(F)c(=O)[nH]1 + CNC(=O)c1ccc(Nc2nc(OC3CCCC3)c3c(-c4ccc5nc(C)oc5c4)c[nH]c3n2)c(OC)c1 has viability, T/C of 23.5

viability, T/C for CCN1CCN(Cc2ccc(Nc3ncc(F)c(-c4cc(F)c5nc(C)n(C(C)C)c5c4)n3)nc2)CC1 + CNC(=O)c1ccc(Nc2nc(OC3CCCC3)c3c(-c4ccc5nc(C)oc5c4)c[nH]c3n2)c(OC)c1 is 33.2

Recorded viability, T/C (compound CC(CO)NC(=O)c1cc(-c2ccc(Cl)cc2)nn(-c2cnn(C)c2)c1=O (stereo not drawn) + CN1CCN(c2cc(C(=O)Nc3cc4cc(-c5cnn(C)c5)ccc4cn3)ccn2)CC1 ): 0.85

Each recorded value in this set is attributed to PubChem BioAssay AID2060604.
